System: IRAK4 (Homo sapiens (Human)) | Read-out: log10 IC50 | Origin: multiple publications
Please keep in mind that the values are log10 of IC50 expressed in nM.

Examples with answers:
compound	log10 IC50
CC(C)(O)CCn1cc2cc(NC(=O)c3ccn(-c4ccnc(C(F)(F)F)c4)n3)c(C(C)(C)O)cc2n1	0.42
COC[C@@H]1CCN(C2CC(C(=O)Nc3nc4ccc(-c5cnc(CO[C@H]6CCC[C@@H]6O)nc5)cc4s3)C2)C1 (stereo partly shown)	0.28
O=C(Nc1nc2ccc(-c3cnc(CO[C@H]4CCC[C@@H]4O)nc3)cc2s1)C1CC(N2CCOCC(F)(F)C2)C1 (stereo partly shown)	0.40
C[C@@H]1CN(C2CC(C(=O)Nc3nc4ccc(-c5cnc(CO[C@H]6CCC[C@@H]6O)nc5)cc4s3)C2)CCO1 (stereo partly shown)	0.44
Cc1cc(-c2nc(C(=O)Nc3cc4cn(CCS(=N)(=O)c5ccncc5)nc4cc3N3CCOCC3)co2)ccn1 (stereo not shown)	-0.30
CC[C@H]1CN(C(=O)C2CCOC2)CCN1C1CC(C(=O)Nc2nc3ccc(-c4cnc(CO[C@H]5CCC[C@@H]5O)nc4)cc3s2)C1 (stereo partly shown)	0.05

With those in mind, consider the next compound.
# lookup: Cc1cc(-c2nc(C(=O)Nc3cc4oc(N5CCC(F)(F)CC5)nc4nc3N3CCC(O)C3)co2)ccn1 (stereo not shown) on IRAK4 (Homo sapiens (Human)), log10 IC50 = 1.76
